# Assay Target: T1, RecE564 P669A (Escherichia coli K12, UniProt P15032 564-866, P669A)
# T1 sequence: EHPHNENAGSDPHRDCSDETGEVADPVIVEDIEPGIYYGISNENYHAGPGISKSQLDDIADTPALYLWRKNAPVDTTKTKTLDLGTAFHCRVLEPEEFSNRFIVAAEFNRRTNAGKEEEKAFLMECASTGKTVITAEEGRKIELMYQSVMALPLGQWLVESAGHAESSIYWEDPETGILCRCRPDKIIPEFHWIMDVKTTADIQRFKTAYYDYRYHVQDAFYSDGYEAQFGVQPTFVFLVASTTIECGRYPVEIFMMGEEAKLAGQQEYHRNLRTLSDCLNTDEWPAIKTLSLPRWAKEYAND
# Experiment Description: fluorescence anisotropy
Measure: Kd (nM)
Express it in nM; write the number only.

Kindly note the recorded Kd for F25 (dsDNA) DNA 1: TAGAGCTTAATTGCTGAATCTGGTG DNA 2: CACCAGATTCAGCAATTAAGCTCTA , which is 109

The values you see were collected from paper PMC2688778.
